Assay: Pharmacokinetics and bioavailability in minipigs after SC administration (Example 8)
Type: in vivo, Gottingen minipig
Conditions: Gottingen, minipig, plasma, 4 ug/kg; SC single site 4 μg/kg, male 1-0771
endpoint-label: Cmax (ng/mL)

compound="OCc1cc(C(O)CNCCCCCCOCCCCc2ccccc2)ccc1O (racemic)" endpoint_label=Cmax observed_value=0.564

====

Assay: Pharmacokinetics and bioavailability in minipigs after SC administration (Example 8)
Assay type: in vivo, Gottingen minipig
Details: Gottingen, minipig, plasma, 4 ug/kg; SC single site 4 μg/kg, male 1-0771
endpoint-label: AUC(0-inf)

molecule="OCc1cc(C(O)CNCCCCCCOCCCCc2ccccc2)ccc1O (racemic)" observed_value="2.26 ng·h/mL"

Cited source: patent US9597531B2
